Kindly state polymerase ribozyme fitness (log ratio) for each of the entries shown.
B1: TPR t1 (parent)
chain: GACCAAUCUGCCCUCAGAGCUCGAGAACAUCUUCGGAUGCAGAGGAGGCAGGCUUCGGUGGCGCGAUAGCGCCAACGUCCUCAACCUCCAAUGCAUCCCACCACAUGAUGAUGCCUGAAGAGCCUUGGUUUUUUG

variants of: B1; test: polymerase ribozyme fitness, log enrichment relative to wild type (log ratio); higher = more active; in vitro selection for triplet polymerase activity

So what's the measured polymerase ribozyme fitness (log ratio) for this one? A5U G10A G17C
-4.03

Now the same for G39U G44U C53G C62A C98U U112A U129C U130A
-5.78

Now the same for G69C A83U C99A C102A
-6.91

Now the same for C11G C34G C49U U106C C115G C124G
-6.56

Now the same for G39U U78C G120A
0.169

Now the same for G93A U132A
-1.15

Now the same for U38G A43U U87C
-2.42

Now the same for C13U G60C C82U U96G
-1.02

Now the same for A6U C11U U14G A46C
-4.04

Now the same for C15A G39A
-2.28

Now the same for C73U G127U
-0.489

Now the same for C62A C79U
-0.345

Now the same for U30C G42U G60A
-5.14

Now the same for C22A G52U A66U U112G
-5.88

Now the same for U14A C56A C62U
-2.93

Now the same for A6C G10A A37G G77A C79U C124A
-0.0414

Now the same for C62U C114A
-1.35

Now the same for C28U G44U U59A C89G
-4.37

Now the same for A2C C15A G25A G71U C80U G120C G135C
-4.64

Now the same for C34G C98G C115A U125A
-7.53

Now the same for C85A C101G U109G G117C
-7.01

Now the same for A16U G17C C123U U126C
-2.6

Now the same for A6C G69U U78C
0.0885

Now the same for G47A A50U G60C G77A
-5

Now the same for C124U U125A
0.926

Now the same for C72U C86U U126G
-2.65

Now the same for C70A U78A C115U
-4.18

Now the same for C34U C86A C114U
-5.07

Now the same for G48U G117C
-4.06

Now the same for C86U G110C
-3.72

Now the same for A46U G63C
-1.29

Now the same for G45A G61A A74U
-1.29

Now the same for U7C C8U C34G C73U
-5.57

Now the same for A29U U96C
-1.87

Now the same for C104A C114U G127A U131A
-6.47

Now the same for C8G A43U C53U U106A
-1.57

Now the same for A111C G127C
-0.199

Now the same for U87C C114G
-2

Now the same for A5U U92C
-1.56

Now the same for A37U C72U A83G C86U
0.0963

Now the same for U14C C20A C114U G128U
-5.92

Now the same for C72G C88U U129A
-0.881

Now the same for A83C G110U G117U
-5.17

Now the same for U9C C15A G44U G60C A91U
-1.82

Now the same for C86U A103C
-5.52

Now the same for G42A C72G C88G
-3.92
